Assay: Accelerated storage test of aldehyde mixture with additive, 10 ppm Cu (Example 2)
Details: after 55° C. 14 days without cap, before test 8.41, blank 6.60
OUTCOME_MEASURE: 16:Ald

{"COMPOUND_STRING": "Cc1cc(-n2nc3ccc(Cl)cc3n2)c(O)c(C(C)(C)C)c1", "OUTCOME_MEASURE": "16:Ald", "OBSERVED_MEASUREMENT": 6.81}
{"COMPOUND_STRING": "CC1(C)CC(OC(=O)CCCCCCCCC(=O)OC2CC(C)(C)NC(C)(C)C2)CC(C)(C)N1", "OUTCOME_MEASURE": "16:Ald", "OBSERVED_MEASUREMENT": 6.62}
{"COMPOUND_STRING": "Cc1cc(C(C)(C)C)c(O)c(C(C)(C)C)c1", "OUTCOME_MEASURE": "16:Ald", "OBSERVED_MEASUREMENT": 7.73}

---

Experiment: Accelerated storage test of aldehyde mixture with additive, 10 ppm Cu (Example 2)
Settings: after 55° C. 14 days without cap, before test 1.05, blank 17.72
OUTCOME_MEASURE: C16:Acid

{"COMPOUND": "Cc1cc(-n2nc3ccc(Cl)cc3n2)c(O)c(C(C)(C)C)c1", "OBSERVED_MEASUREMENT": 15.21}
{"COMPOUND": "OCC(O)CO", "OBSERVED_MEASUREMENT": 16.74}
{"COMPOUND": "Cc1c(C)c2c(c(C)c1O)CCC(C)(CCCC(C)CCCC(C)CCCC(C)C)O2 (racemic)", "OBSERVED_MEASUREMENT": 17.70}

---

Assay: Accelerated storage test of aldehyde mixture with additive, 10 ppm Cu (Example 2)
Details: after 55° C. 14 days without cap, before test 75.31, blank 54.31
OUTCOME_MEASURE: Z11-16Ald

{"COMPOUND": "Cc1cc(C(C)(C)C)c(O)c(C(C)(C)C)c1", "Z11-16Ald": 65.80}
{"COMPOUND": "[Na+].[O-][n+]1ccccc1[S-] [Sodium pyrithione]", "Z11-16Ald": 76.47}
{"COMPOUND": "CC(C)(C)c1cc(O)ccc1O", "Z11-16Ald": 65.65}
{"COMPOUND": "OCC(O)CO", "Z11-16Ald": 55.52}
{"COMPOUND": "Cc1c(C)c2c(c(C)c1O)CCC(C)(CCCC(C)CCCC(C)CCCC(C)C)O2 (racemic)", "Z11-16Ald": 54.82}
{"COMPOUND": "O=S1(=O)CCCC1", "Z11-16Ald": 54.29}
{"COMPOUND": "CC1(C)CC(OC(=O)CCCCCCCCC(=O)OC2CC(C)(C)NC(C)(C)C2)CC(C)(C)N1", "Z11-16Ald": 54.84}
{"COMPOUND": "CN(C)CCO", "Z11-16Ald": 54.82}

---

Assay: Storage test of aldehyde mixture containing 4-hydroxy-TEMPO and 10 ppm Copper with additive (Example 3)
Conditions: after 55 C 14 days without cap; 10 ppm Copper; before test 5.33, blank 3.91
OUTCOME_MEASURE: Z9-16:Ald

{"COMPOUND": "CC1(C)CC(=O)CC(C)(C)N1", "OBSERVED_MEASUREMENT": 3.83}
{"COMPOUND": "Nc1nnc(S)s1", "OBSERVED_MEASUREMENT": 4.92}
{"COMPOUND": "Cn1ccnc1S", "OBSERVED_MEASUREMENT": 4.83}
{"COMPOUND": "SC1=NCCS1", "OBSERVED_MEASUREMENT": 5.06}
{"COMPOUND": "CC1(C)CC(O)CC(C)(C)N1[O]", "OBSERVED_MEASUREMENT": 4.72}
{"COMPOUND": "[Na+].[O-][n+]1ccccc1[S-] [Sodium pyrithione]", "OBSERVED_MEASUREMENT": 5.18}
{"COMPOUND": "Sc1nc2ccccc2[nH]1", "OBSERVED_MEASUREMENT": 4.70}
{"COMPOUND": "Cc1nnc(S)s1", "OBSERVED_MEASUREMENT": 4.69}

---

Assay: Storage test of aldehyde mixture containing 4-hydroxy-TEMPO with additive (Example 4)
Format: physicochemical
Settings: after 55° C. 14 days without cap; before test 75.31, without additive 57.21; in % (unit assumed)
OUTCOME_MEASURE: Z11-16:Ald

{"MOLECULE": "Cn1ccnc1S [2-mercapto-1-methylimidazole]", "OUTCOME_MEASURE": "Z11-16:Ald", "OBSERVED_MEASUREMENT": 73.41}
{"MOLECULE": "[Na+].[O-][n+]1ccccc1[S-] [Sodium pyrithione]", "OUTCOME_MEASURE": "Z11-16:Ald", "OBSERVED_MEASUREMENT": 74.65}
{"MOLECULE": "CC1(C)CC(=O)CC(C)(C)N1 [2,2,6,6-tetramethyl-4-piperidone]", "OUTCOME_MEASURE": "Z11-16:Ald", "OBSERVED_MEASUREMENT": 61.06}
{"MOLECULE": "Cc1nnc(S)s1 [5-Methyl-1,3,4-thiadiazole-2-thiol]", "OUTCOME_MEASURE": "Z11-16:Ald", "OBSERVED_MEASUREMENT": 71.38}
{"MOLECULE": "Sc1nc2ccccc2[nH]1 [2-mercapto-Benzimidazole]", "OUTCOME_MEASURE": "Z11-16:Ald", "OBSERVED_MEASUREMENT": 59.82}
{"MOLECULE": "SC1=NCCS1 [2-thiazoline-2-thiol]", "OUTCOME_MEASURE": "Z11-16:Ald", "OBSERVED_MEASUREMENT": 68.79}
{"MOLECULE": "Nc1nnc(S)s1 [5-Amino-1,3,4-Thiadiazole-2-thiol]", "OUTCOME_MEASURE": "Z11-16:Ald", "OBSERVED_MEASUREMENT": 69.41}
{"MOLECULE": "CC1(C)CC(O)CC(C)(C)N1[O] [Additive 4-OH-TEMPO]", "OUTCOME_MEASURE": "Z11-16:Ald", "OBSERVED_MEASUREMENT": 67.41}

---

Experiment: Storage test of aldehyde mixture containing 4-hydroxy-TEMPO with additive (Example 4)
Format: physicochemical
Settings: after 55° C. 14 days without cap; before test 0.27, without additive 0.06
OUTCOME_MEASURE: Z11-16:OH

// solved cases for Z11-16:OH follow
{"COMPOUND": "Cn1ccnc1S [2-mercapto-1-methylimidazole]", "OBSERVED_MEASUREMENT": 0.28}
{"COMPOUND": "Cc1nnc(S)s1 [5-Methyl-1,3,4-thiadiazole-2-thiol]", "OBSERVED_MEASUREMENT": 0.29}
{"COMPOUND": "Nc1nnc(S)s1 [5-Amino-1,3,4-Thiadiazole-2-thiol]", "OBSERVED_MEASUREMENT": 0.12}
{"COMPOUND": "CC1(C)CC(O)CC(C)(C)N1[O] [Additive 4-OH-TEMPO]", "OBSERVED_MEASUREMENT": 0.19}
{"COMPOUND": "[Na+].[O-][n+]1ccccc1[S-] [Sodium pyrithione]", "OBSERVED_MEASUREMENT": 0.24}
{"COMPOUND": "Sc1nc2ccccc2[nH]1 [2-mercapto-Benzimidazole]", "OBSERVED_MEASUREMENT": 0.00}

I = CC1(C)CC(=O)CC(C)(C)N1 [2,2,6,6-tetramethyl-4-piperidone]
II = SC1=NCCS1 [2-thiazoline-2-thiol]
Lab note: check whether I or II has the lower measured Z11-16:OH. Answer = label.
II

---

Experiment: Storage test of aldehyde mixture containing 4-hydroxy-TEMPO and 10 ppm Copper with additive (Example 3)
Settings: after 55 C 14 days without cap; 10 ppm Copper; before test 3.01, blank 7.94
OUTCOME_MEASURE: 16:Acid

I = SC1=NCCS1 [2-thiazoline-2-thiol]
II = CC1(C)CC(=O)CC(C)(C)N1 [2,2,6,6-tetramethyl-4-piperidone]
// which entry reports the smaller 16:Acid, I or II ? I would appreciate it if you answered with the label of your choice.
I

---

Assay: Storage test of aldehyde mixture containing 4-hydroxy-TEMPO and 10 ppm Copper with additive (Example 3)
Details: after 55 C 14 days without cap; 10 ppm Copper; before test 2.16, blank 1.44
OUTCOME_MEASURE: Z11-16:OH

{"COMPOUND": "CC1(C)CC(O)CC(C)(C)N1[O] [Additive 4-OH-TEMPO]", "OBSERVED_MEASUREMENT": 1.88}
{"COMPOUND": "[Na+].[O-][n+]1ccccc1[S-] [Sodium pyrithione]", "OBSERVED_MEASUREMENT": 2.14}
{"COMPOUND": "Cn1ccnc1S [2-mercapto-1-methylimidazole]", "OBSERVED_MEASUREMENT": 1.92}
{"COMPOUND": "CC1(C)CC(=O)CC(C)(C)N1 [2,2,6,6-tetramethyl-4-piperidone]", "OBSERVED_MEASUREMENT": 1.75}
{"COMPOUND": "SC1=NCCS1 [2-thiazoline-2-thiol]", "OBSERVED_MEASUREMENT": 2.18}
{"COMPOUND": "Cc1nnc(S)s1 [5-Methyl-1,3,4-thiadiazole-2-thiol]", "OBSERVED_MEASUREMENT": 2.12}
{"COMPOUND": "Sc1nc2ccccc2[nH]1 [2-mercapto-Benzimidazole]", "OBSERVED_MEASUREMENT": 1.87}
{"COMPOUND": "Nc1nnc(S)s1 [5-Amino-1,3,4-Thiadiazole-2-thiol]", "OBSERVED_MEASUREMENT": 2.11}
